Measured AC50 on Cytochrome P450 2C9 (Homo sapiens, UniProt P11712) follows.
Sequence (P11712 whole entry): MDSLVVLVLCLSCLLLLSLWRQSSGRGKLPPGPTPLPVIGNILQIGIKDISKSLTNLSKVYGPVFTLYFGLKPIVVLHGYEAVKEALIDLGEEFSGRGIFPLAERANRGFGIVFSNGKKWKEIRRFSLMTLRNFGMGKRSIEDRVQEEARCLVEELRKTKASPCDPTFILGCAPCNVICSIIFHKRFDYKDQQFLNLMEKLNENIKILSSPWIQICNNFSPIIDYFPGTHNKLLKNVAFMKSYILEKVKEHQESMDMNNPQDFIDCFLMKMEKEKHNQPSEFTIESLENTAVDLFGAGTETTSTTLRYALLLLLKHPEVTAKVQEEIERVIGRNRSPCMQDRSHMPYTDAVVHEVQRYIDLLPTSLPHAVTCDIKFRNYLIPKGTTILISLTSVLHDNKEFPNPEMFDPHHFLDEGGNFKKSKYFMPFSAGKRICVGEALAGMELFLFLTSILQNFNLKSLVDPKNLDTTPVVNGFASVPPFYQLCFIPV

// worked examples, AC50 included
INSERT INTO measurements (molecule, reportedresult) VALUES
  ('CCOc1ccc(CNC(=O)C2CCC(=O)N2C2CCCC2)cc1OC (stereo not given)', '28.2 µM (inconclusive)'),
  ('Oc1c(Cl)cc(CN(Cc2cc(Cl)c(O)c(Cl)c2)C2CCCCC2)cc1Cl', '3.98 µM (inconclusive)'),
  ('C[C@@H](C(=O)Nc1ccc2ccccc2c1)[C@H]1C[C@]1(C)[C@H](NC(=O)Oc1ccc(F)cc1)c1ccccc1', '31.6 µM (inconclusive)');

Query: Item under review: Cc1cc(Oc2ccccc2)nc(-c2ccccc2)n1 . Reported AC50?
Result: 12.6 µM (inconclusive)

Query: Item under review: COc1ccccc1-c1ccc2ncnc(Nc3ccccc3)c2c1 . Reported AC50?
Result: 1.26 µM (inconclusive)

Query: Item under review: CCN(CC)CC#CCOC(=O)[C@@](O)(c1ccccc1)C1CCCCC1 [ESOXYBUTYNIN] . Reported AC50?
Result: 15.8 µM (inconclusive)

Query: Item under review: COc1ccc(Oc2ncc3ncc(=O)n(C[C@H]4CCCO4)c3n2)cc1 . Reported AC50?
Result: 20 µM (inconclusive)

Query: Item under review: CCN(CC)C(=O)CSc1nnc(-c2ccncc2)n1N . Reported AC50?
Result: 31.6 µM (inconclusive)

Query: Item under review: O=C(O)c1ccc(CSc2nc3ccccc3o2)cc1 . Reported AC50?
Result: 39.8 µM (inconclusive)

Query: Item under review: CCCOC(=O)c1ccc(NC(=O)c2cn(CC)c3nc(C)ccc3c2=O)cc1 . Reported AC50?
Result: 15.8 µM (inconclusive)

----------
Molecular target: Peroxisome proliferator-activated receptor gamma/Nuclear receptor coactivator 2 (Homo sapiens)
Sequence (P37231 whole entry): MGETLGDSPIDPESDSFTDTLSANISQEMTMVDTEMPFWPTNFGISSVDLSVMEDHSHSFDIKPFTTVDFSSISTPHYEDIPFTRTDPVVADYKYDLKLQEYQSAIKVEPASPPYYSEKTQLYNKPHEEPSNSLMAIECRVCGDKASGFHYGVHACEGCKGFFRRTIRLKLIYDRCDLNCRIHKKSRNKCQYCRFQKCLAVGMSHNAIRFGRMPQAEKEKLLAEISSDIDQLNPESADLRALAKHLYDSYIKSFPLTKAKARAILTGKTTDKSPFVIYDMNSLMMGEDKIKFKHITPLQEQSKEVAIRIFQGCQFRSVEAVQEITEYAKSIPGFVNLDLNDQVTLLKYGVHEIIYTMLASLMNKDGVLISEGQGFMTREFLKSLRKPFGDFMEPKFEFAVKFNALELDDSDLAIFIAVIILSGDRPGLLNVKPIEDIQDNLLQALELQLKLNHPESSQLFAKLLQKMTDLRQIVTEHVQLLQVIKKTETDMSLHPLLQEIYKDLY
Sequence (Q15596 whole entry, further chain): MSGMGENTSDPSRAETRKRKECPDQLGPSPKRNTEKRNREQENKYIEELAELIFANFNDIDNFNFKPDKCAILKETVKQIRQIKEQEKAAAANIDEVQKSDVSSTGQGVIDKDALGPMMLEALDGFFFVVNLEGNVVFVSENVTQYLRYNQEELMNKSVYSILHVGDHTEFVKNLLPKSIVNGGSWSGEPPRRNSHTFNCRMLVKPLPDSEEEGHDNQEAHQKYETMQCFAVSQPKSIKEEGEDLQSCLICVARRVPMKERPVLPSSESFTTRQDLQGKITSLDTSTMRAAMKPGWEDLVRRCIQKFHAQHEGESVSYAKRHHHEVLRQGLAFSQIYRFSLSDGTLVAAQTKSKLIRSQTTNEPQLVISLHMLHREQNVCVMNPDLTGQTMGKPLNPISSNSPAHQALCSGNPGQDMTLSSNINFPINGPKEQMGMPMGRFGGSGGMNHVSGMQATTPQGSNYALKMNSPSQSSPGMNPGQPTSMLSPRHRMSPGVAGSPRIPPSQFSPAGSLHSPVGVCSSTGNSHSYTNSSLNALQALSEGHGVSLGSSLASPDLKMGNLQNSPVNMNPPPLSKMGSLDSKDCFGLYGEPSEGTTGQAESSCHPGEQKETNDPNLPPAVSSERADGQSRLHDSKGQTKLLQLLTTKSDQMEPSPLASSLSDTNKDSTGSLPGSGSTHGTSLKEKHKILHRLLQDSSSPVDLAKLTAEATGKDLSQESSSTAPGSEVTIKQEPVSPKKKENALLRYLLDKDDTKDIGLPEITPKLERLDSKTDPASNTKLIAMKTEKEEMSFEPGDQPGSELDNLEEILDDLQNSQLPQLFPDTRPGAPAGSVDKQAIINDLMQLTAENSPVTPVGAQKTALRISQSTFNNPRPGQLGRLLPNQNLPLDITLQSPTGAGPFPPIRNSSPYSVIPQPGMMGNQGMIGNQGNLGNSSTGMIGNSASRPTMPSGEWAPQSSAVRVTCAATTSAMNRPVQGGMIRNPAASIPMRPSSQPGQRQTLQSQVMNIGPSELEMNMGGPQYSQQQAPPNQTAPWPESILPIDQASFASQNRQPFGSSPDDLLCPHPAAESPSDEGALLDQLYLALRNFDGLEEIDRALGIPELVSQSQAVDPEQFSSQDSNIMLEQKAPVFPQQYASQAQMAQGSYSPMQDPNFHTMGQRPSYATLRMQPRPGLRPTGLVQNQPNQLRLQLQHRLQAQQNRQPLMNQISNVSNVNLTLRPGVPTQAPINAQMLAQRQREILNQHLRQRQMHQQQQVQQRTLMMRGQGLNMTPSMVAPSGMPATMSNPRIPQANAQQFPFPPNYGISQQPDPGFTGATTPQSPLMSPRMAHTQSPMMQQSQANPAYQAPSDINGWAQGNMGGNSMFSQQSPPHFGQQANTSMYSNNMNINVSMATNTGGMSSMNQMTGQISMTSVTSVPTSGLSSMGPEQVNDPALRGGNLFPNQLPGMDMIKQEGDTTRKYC
Assay: TR-FRET dose response biochemical High Throughput Screening assay for agonists of the steroid receptor coactivator 2 (SRC-2) recruitment by the peroxisome proliferator-activated receptor gamma (PPAR gamma): non-selective agonists. [Related pubchem assays: 1297, 1032 ]
Assay type: functional
The source made the active and inactive calls.
recordedEndpoint: EC50

INSERT INTO measurements (compound, reportedresult) VALUES
  ('c1ccc(-c2nc(-c3cccs3)[nH]c2-c2ccccc2)cc1', '32.3 µM (not active)');

Query: Item under review: COC(=O)c1c(N=C(S)Nc2ccccc2Cl)sc(C)c1C . Reported EC50?
Result: 28.6 µM (not active)

Query: Item under review: Cn1c(=O)cc(SCC(=O)NCC2CCCO2)c2ccccc21 (configuration not stated) . Reported EC50?
Result: > 79.4 µM (not active)

Query: Item under review: CCOc1ccccc1-c1nnc(S)o1 . Reported EC50?
Result: 35.6 µM (not active)

Query: Item under review: COc1ccc(C(=O)C2=C(O)C(=O)N(c3cc(C)on3)C2c2ccccc2OC)cc1 (configuration not stated) . Reported EC50?
Result: 18.2 µM (not active)

Query: Item under review: CCOC(=O)c1ccc2c(c1)nc(S)n2CC . Reported EC50?
Result: 15.7 µM (not active)

Query: Item under review: Cn1c(S)nnc1-c1sc2cc(C(F)(F)F)cnc2c1-c1ccccc1 . Reported EC50?
Result: 5.17 µM (active)

----------
Consider the following molecules and their measured IC50 readings.
Target: Ubiquitin-conjugating enzyme E2 N (Homo sapiens, UniProt P61088);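 note: Dose-response confirmation in a TR-FRET assay detecting UBC13-driven polyubiquitin chain formation, inhibition measured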
Sequence (P61088 whole entry): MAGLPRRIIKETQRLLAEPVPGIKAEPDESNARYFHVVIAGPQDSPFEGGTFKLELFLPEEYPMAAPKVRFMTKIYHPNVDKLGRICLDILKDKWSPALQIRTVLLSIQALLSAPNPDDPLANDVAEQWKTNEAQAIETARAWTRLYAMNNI
Assay type: functional
The source made the active and inactive calls.

// worked examples, IC50 included
INSERT INTO results (molecule, recordedendpoint, reportedresult) VALUES
  ('CCCOC(=O)c1cccc(Nc2nc(-c3cccnc3)nc3ccccc23)c1', 'IC50', '> 20 µM (inactive)'),
  ('Cc1ccccc1C(=O)OC1OC(O)=C(Cl)/C1=N\c1ccccc1 (stereo not given)', 'IC50', '> 20 µM (inactive)'),
  ('CN(C)CCCN(C(=O)c1ccc(C(=O)c2ccccc2)cc1)c1nc2cc3c(cc2s1)OCCO3', 'IC50', '7.1 µM (active)');

Query: Item under review: CCC(C)(C)c1ccc(OCCCC[n+]2ccccc2)c(C(C)(C)CC)c1 . Reported IC50?
Result: 16.9 µM (active)

Query: Item under review: C#CCOCCOCCOCCNc1nc(N2CCN(C(=O)[C@H](CCCCN)n3cc([C@@H](N)CC(N)=O)nn3)CC2)nc(N2CCN(C(=O)[C@H](CCCCN)n3cc([C@@H](N)CC(N)=O)nn3)CC2)n1 . Reported IC50?
Result: 17.3 µM (active)
